# Test system: A498
# MEASUREMENT_NOTES: Antitumor cytotoxic activity against A-498 cell line was determined
# Assay type: functional
# TEST_CONTEXT: Homo sapiens
The following compounds are listed with their measured GI50 values.
EXPERIMENTAL_ENDPOINT: GI50 (ng/mL)

[[record]]
compound = "c1ccc(-c2cc(-c3ccco3)cc(-c3ccccn3)n2)nc1"
reported_value = 0.064

[[record]]
compound = "COc1cccc2c1C(=O)c1c(O)c3c(c(O)c1C2=O)C[C@@](O)(C(=O)CO)C[C@@H]3O[C@H]1C[C@H](N)[C@H](O)[C@H](C)O1 [DOXORUBICIN]"
reported_value = 6.4

[[record]]
compound = "c1ccc(-c2cc(-c3ccsc3)cc(-c3cccnc3)n2)nc1"
reported_value = 640

[[record]]
compound = "c1ccc(-c2cc(-c3ccccn3)nc(-c3ccccn3)c2)cc1"
reported_value = 2.5

